# assayed_system: mouse DAT (Mus musculus, UniProt Q61327)
# Sequence (Q61327 whole entry): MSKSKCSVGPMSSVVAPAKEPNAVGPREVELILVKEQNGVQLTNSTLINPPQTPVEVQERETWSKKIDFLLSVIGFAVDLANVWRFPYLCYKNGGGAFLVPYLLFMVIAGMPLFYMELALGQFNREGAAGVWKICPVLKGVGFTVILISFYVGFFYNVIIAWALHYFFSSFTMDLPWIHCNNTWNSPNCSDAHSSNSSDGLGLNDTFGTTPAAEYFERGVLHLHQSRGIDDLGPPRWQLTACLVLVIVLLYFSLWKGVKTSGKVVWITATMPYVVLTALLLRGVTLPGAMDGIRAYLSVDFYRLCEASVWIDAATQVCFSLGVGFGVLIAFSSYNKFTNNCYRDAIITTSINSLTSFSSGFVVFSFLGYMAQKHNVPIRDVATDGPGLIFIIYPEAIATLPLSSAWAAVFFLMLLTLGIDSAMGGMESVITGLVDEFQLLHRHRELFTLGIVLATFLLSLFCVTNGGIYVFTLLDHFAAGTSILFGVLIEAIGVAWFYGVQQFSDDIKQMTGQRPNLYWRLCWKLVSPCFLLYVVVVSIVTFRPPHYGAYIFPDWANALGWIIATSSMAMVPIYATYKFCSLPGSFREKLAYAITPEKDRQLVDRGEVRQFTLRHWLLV
# test_summary: Dopamine uptake into HeLa cells transiently transfected with mDAT
# Format: cell-based
# condition_details: transfected HeLa cells, 60 nM [3H] substrate; mean ± SEM, 3 experiments; read-out: IC50, inhibition of dopamine uptake by mDAT
property: pIC50
Conceptually, pIC50 converts a concentration in mol/L into minus its log10.

Enquiry: Using known records, supply pIC50 for COC(=O)[C@H]1[C@@H](OC(=O)c2ccccc2)C[C@@H]2CC[C@H]1[N+]2(C)C.[I-] [Cocaine Methiodide, Cocaine methiodide]
Return: 4.08

====

# assayed_system: mouse SERT (Mus musculus)
# Sequence (Q60857 whole entry): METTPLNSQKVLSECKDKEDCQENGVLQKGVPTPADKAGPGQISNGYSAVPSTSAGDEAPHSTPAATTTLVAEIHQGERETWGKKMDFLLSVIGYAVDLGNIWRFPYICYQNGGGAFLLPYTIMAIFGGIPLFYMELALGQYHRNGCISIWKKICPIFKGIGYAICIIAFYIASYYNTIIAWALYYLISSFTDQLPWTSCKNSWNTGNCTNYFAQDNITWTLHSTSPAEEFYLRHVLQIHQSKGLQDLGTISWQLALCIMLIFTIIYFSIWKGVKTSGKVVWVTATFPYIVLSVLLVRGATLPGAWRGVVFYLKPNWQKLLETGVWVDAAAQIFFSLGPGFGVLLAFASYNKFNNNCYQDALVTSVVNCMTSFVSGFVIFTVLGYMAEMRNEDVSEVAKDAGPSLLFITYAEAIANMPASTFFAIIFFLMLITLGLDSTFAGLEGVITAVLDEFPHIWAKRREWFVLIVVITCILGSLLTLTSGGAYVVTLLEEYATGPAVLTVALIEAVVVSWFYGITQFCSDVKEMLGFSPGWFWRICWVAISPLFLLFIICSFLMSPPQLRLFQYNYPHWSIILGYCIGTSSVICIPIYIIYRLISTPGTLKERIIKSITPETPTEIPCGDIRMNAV
# test_summary: Serotonin uptake into HeLa cells transiently transfected with mSERT
# Assay type: cell-based
# condition_details: transfected HeLa cells, 60 nM [3H] substrate; mean ± SEM, 3 experiments; read-out: IC50, inhibition of serotonin uptake by mSERT
property: IC50 (µM)
Just the number please, in µM, no unit attached.

Enquiry: Using known records, supply IC50 for COC(=O)[C@H]1[C@@H](OC(=O)c2ccccc2)C[C@@H]2CC[C@H]1[N+]2(C)C.[I-] [Cocaine Methiodide, Cocaine methiodide]
Return: 84.3
